Listed here are compounds together with their documented Tmax.
Assay: Randomized, double blind, parallel bioavailability study (plasma CBD, THC and metabolites by LCMS)
Settings: human, oral
Experimental: Dosage was standardized to 10 mg of THC. […] Secondary outcome was a subjective evaluation of drug effects assessed using modified Drug Effects Questionnaire (DEQ-5) for the control product and the experimental product. […] The samples are also analyzed for HbAlc, CBC, electrolytes (Na, K, Cl, Ca), creatinine, estimated glomerular filtration rate (eGFR), aspartate aminotransferase (AST), alanine aminotransferase (ALT), and bilirubin. […]

{"compound": "C=C(C)[C@@H]1CCC(C)=C[C@H]1c1c(O)cc(CCCCC)cc1O [CBD, (−)-Cannabidiol (CBD)]", "Tmax": "10 to 85 min"}
{"compound": "CCCCCc1cc(O)c2c(c1)OC(C)(C)[C@@H]1CCC(C)=C[C@@H]21 [Δ^9-THC, Δ^9-Tetrahydrocannabinol (Δ^9-THC)]", "Tmax": "10 to 90 min"}

// provenance: patent US20200138772A1
